System: α1,3-L-fucosyltransferase of the particulate fraction of ovarian tumor
protocol description: Assay of α1,3-fucosyltransferase with synthetic acceptors, ovarian tumor particulate fraction
Assay type: biochemical, human
condition label: acceptor 3.0 mM, 37° C. 18 h
test readout: [14C] Fucose Incorporated (CPM)

[
  {
    "molecule": "CC(=O)N[C@H]1[C@H](OCc2ccccc2)O[C@H](CO)[C@@H](O[C@@H]2O[C@H](CO)[C@H](O)[C@H](OS(=O)(=O)O)[C@H]2O)[C@@H]1O [3'-Sulfo LacNAcβ-O--Bn]",
    "[14C] Fucose Incorporated (CPM)": 16062
  },
  {
    "molecule": "CC(=O)N[C@H]1C(O)O[C@H](CO)[C@@H](O)[C@@H]1O[C@@H]1O[C@H](CO)[C@H](O)[C@H](O)[C@H]1O (stereo partly drawn) [Ga1β1,3G1cNAc]",
    "[14C] Fucose Incorporated (CPM)": 16511
  },
  {
    "molecule": "CO[C@H]1[C@H](O[C@H]2[C@H](O)[C@@H](NC(C)=O)[C@H](OCc3ccccc3)O[C@@H]2CO)O[C@H](CO)[C@H](O)[C@@H]1O [2'-methyl LacNAcβ-O--Bn]",
    "[14C] Fucose Incorporated (CPM)": 71989
  },
  {
    "molecule": "CC(=O)N[C@H]1C(O)O[C@H](CO)[C@@H](O[C@@H]2O[C@H](COS(=O)(=O)O)[C@H](O)[C@H](O)[C@H]2O)[C@@H]1O (stereo partly shown) [6'-Sulfo LacNAc]",
    "[14C] Fucose Incorporated (CPM)": 20543
  },
  {
    "molecule": "CC(=O)N[C@H]1C(O)O[C@H](CO)[C@@H](O[C@@H]2O[C@H](CO)[C@H](O)[C@H](O)[C@H]2O[C@@H]2O[C@@H](C)[C@@H](O)[C@@H](O)[C@@H]2O)[C@@H]1O (stereo partly shown) [2'-Fucosyl LacNAc, 2'-Fucosyl N-acetyllactosamine]",
    "[14C] Fucose Incorporated (CPM)": 69824
  }
]

P = CC(=O)N[C@H]1C(O)O[C@H](COS(=O)(=O)O)[C@@H](O[C@@H]2O[C@H](CO)[C@H](O)[C@H](O)[C@H]2O)[C@@H]1O (stereo partly shown) [6-Sulfo LacNAc]
Q = CC(=O)N[C@H]1[C@H](OCc2ccccc2)O[C@H](CO)[C@@H](O)[C@@H]1O[C@@H]1O[C@H](CO)[C@H](O)[C@H](OS(=O)(=O)O)[C@H]1O [3-SulfoGa1β1,3G1cNAcβ-O--Bn]
Exercise: Quick one: lower [14C] Fucose Incorporated (CPM), P or Q ? Respond with the label that goes with your answer.
Key: Q
(Q: 1382 CPM, P: 25740 CPM)

====

tested system: serum α1,3-L-fucosyltransferase (Homo sapiens, UniProt P51993)
Construct: Sera were collected from healthy females and ovarian cancer patients; from tissue; host or cells: blood serum of ovarian cancer patients and healthy females
Sequence (P51993 35-359 limits assumed): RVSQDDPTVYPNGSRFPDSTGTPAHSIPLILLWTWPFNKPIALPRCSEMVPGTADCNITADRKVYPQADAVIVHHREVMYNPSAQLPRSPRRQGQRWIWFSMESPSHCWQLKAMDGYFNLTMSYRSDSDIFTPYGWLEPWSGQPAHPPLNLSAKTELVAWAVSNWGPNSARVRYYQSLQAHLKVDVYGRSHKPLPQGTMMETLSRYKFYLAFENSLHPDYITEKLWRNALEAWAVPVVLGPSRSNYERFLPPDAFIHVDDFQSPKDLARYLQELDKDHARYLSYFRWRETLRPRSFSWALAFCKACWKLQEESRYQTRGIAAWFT
protocol description: Assay of α1,3-fucosyltransferase with various synthetic acceptors, ovarian cancer sera as enzyme source
Type: biochemical
condition label: acceptor 0.3 mM, 37° C. 18 h
Description: Sera were collected from healthy females and ovarian cancer patients admitted to Roswell Park Cancer Institute in Buffalo, N.Y., USA. Ovarian tumor tissues were obtained during surgical procedures from patients with ovarian cancer. Both sera and tissues were stored frozen at -70° C. until use. […] The activity of serum α1,3-fucosyltransferase was measured with the specific substrate 2'-methyl LacNAc and compared with the ability of several other synthetic substrates to act as an acceptor of fucose. […]
test readout: [14C] Fucose Incorporated (CPM)

a = CO[C@@H]1O[C@H](CO)[C@H](O)[C@H](O[C@@H]2O[C@H](CO)[C@@H](O)[C@H](O[C@@H]3O[C@H](CO)[C@H](O)[C@H](O)[C@H]3O)[C@H]2NC(C)=O)[C@H]1O [Ga1β1,3G1cNAcβ1,3Ga1β-O--Me]
b = CC(=O)N[C@H]1[C@H](O[C@H]2[C@@H](O)[C@@H](CO)O[C@@H](Oc3ccc([N+](=O)[O-])cc3)[C@@H]2O)O[C@H](CO)[C@@H](O[C@@H]2O[C@H](CO)[C@H](O)[C@H](O)[C@H]2O)[C@@H]1O [LacNAcβ1,3Ga1β-O--PNP]
c = CC(=O)N[C@H]1C(O)O[C@H](CO)[C@@H](O[C@@H]2O[C@H](CO)[C@H](O)[C@H](O)[C@H]2O)[C@@H]1O[C@@H]1O[C@@H](C)[C@@H](O)[C@@H](O)[C@@H]1O (stereo partly drawn) [3-Fucosyl LacNAc]
Exercise: Arrange the items listed above so that [14C] Fucose Incorporated (CPM) rises from first to last. Would you mind listing the labels in the order requested?
Key: c, a, b
(c: 82 CPM, a: 739 CPM, b: 2886 CPM)

====

Test system: α1,3-L-fucosyltransferase of the soluble fraction of human ovarian tumor
protocol description: Assay of α1,3-fucosyltransferase with synthetic acceptors, partially purified enzyme of ovarian tumor soluble fraction
Assay type: biochemical
condition label: acceptor 3.0 mM, 37° C. 18 h
test readout: [14C] Fucose Incorporated (CPM)

I = CC(=O)N[C@H]1C(O)O[C@H](CO)[C@@H](O)[C@@H]1O[C@@H]1O[C@H](CO)[C@H](O)[C@H](O)[C@H]1O (stereo partly shown)
II = CC(=O)N[C@H]1C(O)O[C@H](CO)[C@@H](O[C@@H]2O[C@H](CO)[C@H](O)[C@H](O)[C@H]2OS(=O)(=O)O)[C@@H]1O (stereo partly shown)
Exercise: Quick one: lower [14C] Fucose Incorporated (CPM), I or II ? Respond with the label that goes with your answer.
Key: II
(II: 2414 CPM, I: 41802 CPM)

====

Tested on: α1,3-L-fucosyltransferase of the particulate fraction of ovarian tumor
protocol description: Assay of α1,3-fucosyltransferase with synthetic acceptors, ovarian tumor particulate fraction
Assay type: biochemical, human
condition label: 2'-methyl LacNAc = 100
test readout: Relative Percent (%)

I = CC(=O)N[C@H]1[C@H](OCc2ccccc2)O[C@H](CO)[C@@H](O[C@@H]2O[C@H](CO)[C@H](O)[C@H](O)[C@H]2O)[C@@H]1O [LacNAcβ-O--Bn]
II = CC(=O)N[C@H]1[C@H](OCc2ccccc2)O[C@H](CO)[C@@H](O[C@@H]2O[C@H](CO)[C@H](O)[C@H](OS(=O)(=O)O)[C@H]2O)[C@@H]1O [3'-Sulfo LacNAcβ-O--Bn]
Exercise: Quick one: lower Relative Percent, I or II ? Respond with the label that goes with your answer.
Key: II
(II: 33.3%, I: 132.9%)

a = CO[C@H]1[C@H](O[C@H]2[C@H](O)[C@@H](NC(C)=O)[C@H](OCc3ccccc3)O[C@@H]2CO)O[C@H](CO)[C@H](O)[C@@H]1O [2'-methyl LacNAcβ-O--Bn]
b = CO[C@H]1[C@H](O[C@H]2[C@H](O)[C@@H](NC(C)=O)C(O)O[C@@H]2CO)O[C@H](CO)[C@H](O)[C@@H]1O (stereo partly shown) [2'-methyl LacNAc]
Exercise: Compare the recorded Relative Percent of a and b ; state which is larger. Respond with the label that goes with your answer.
Key: a

====

System: α1,3-L-fucosyltransferase of the particulate fraction of ovarian tumor
protocol description: Assay of α1,3-fucosyltransferase with synthetic acceptors, ovarian tumor particulate fraction
Type: biochemical, human
condition label: acceptor 3.0 mM, 37° C. 18 h
test readout: [14C] Fucose Incorporated (CPM)

[
  {
    "molecule": "CC(=O)N[C@H]1[C@H](OCc2ccccc2)O[C@H](CO)[C@@H](O)[C@@H]1O[C@@H]1O[C@H](CO)[C@H](O)[C@H](O)[C@H]1O",
    "tested system": "α1,3-L-fucosyltransferase of the particulate fraction of ovarian tumor",
    "[14C] Fucose Incorporated (CPM)": 18221
  }
]

A = CC(=O)N[C@H]1C(O)O[C@H](CO)[C@@H](O[C@@H]2O[C@H](CO)[C@H](O)[C@H](OS(=O)(=O)O)[C@H]2O)[C@@H]1O (some centres unmarked)
B = CC(=O)N[C@H]1C(O)O[C@H](CO)[C@@H](O[C@@H]2O[C@H](CO)[C@H](O)[C@H](O)[C@H]2O)[C@@H]1O (some centres unmarked)
C = CC(=O)N[C@H]1C(O)O[C@H](CO)[C@@H](O[C@@H]2O[C@H](CO)[C@H](O)[C@H](O)[C@H]2O)[C@@H]1O[C@@H]1O[C@@H](C)[C@@H](O)[C@@H](O)[C@@H]1O (some centres unmarked)
D = CC(=O)N[C@H]1[C@H](OCc2ccccc2)O[C@H](CO)[C@@H](O[C@@H]2O[C@H](CO)[C@H](O)[C@H](O)[C@H]2O)[C@@H]1O
Exercise: I would appreciate it if you could sort these 4 molecules by [14C] Fucose Incorporated (CPM), starting from the smallest number. Would you mind listing the labels in the order requested?
Key: C, A, B, D
(C: 1801 CPM, A: 18793 CPM, B: 29842 CPM, D: 64223 CPM)
